Assay Target: CYP3A4 (Homo sapiens (Human))
Sequence (P08684 whole entry): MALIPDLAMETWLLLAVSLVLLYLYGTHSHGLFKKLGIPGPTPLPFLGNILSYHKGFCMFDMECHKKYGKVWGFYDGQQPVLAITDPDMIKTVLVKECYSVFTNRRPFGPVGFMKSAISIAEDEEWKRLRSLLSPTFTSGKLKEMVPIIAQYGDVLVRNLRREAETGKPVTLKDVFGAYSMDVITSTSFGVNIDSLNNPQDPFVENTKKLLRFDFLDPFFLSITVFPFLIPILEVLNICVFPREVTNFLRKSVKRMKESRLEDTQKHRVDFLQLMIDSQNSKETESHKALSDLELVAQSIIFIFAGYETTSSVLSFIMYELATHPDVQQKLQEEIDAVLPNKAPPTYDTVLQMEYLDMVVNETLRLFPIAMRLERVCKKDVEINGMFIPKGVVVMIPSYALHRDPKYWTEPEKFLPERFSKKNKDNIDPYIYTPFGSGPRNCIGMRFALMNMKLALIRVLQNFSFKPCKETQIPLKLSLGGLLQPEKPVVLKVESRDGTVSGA
Measured Endpoint: pIC50
pIC50 is a log-scale quantity: -log10 of the concentration expressed in molar.

// returns pIC50 for C[C@@H]1Cc2c([nH]c3cc(F)ccc23)[C@@H](c2c(F)cc(N[C@H]3CCN(CCCF)C3)cc2F)N1CC(F)(F)F with CYP3A4 (Homo sapiens (Human)); value = 4.72

* * *

Procedure Summary: Pharmacokinetic test in mice
Assay type: in vivo
Test Settings: male, ICR, mouse, iv, i.v. (5 mg/kg), plasma
Measured Endpoint: AUC(0-t) (ng·h/mL)
Field format: number, assumed ng·h/mL, no unit text.

The cases that follow already have their AUC(0-t) on record.
Smiles Repr	AUC(0-t) [ng·h/mL]
C[C@@H]1Cc2c([nH]c3ccc(F)cc23)[C@@H](c2c(F)cc(N[C@H]3CCN(CCCF)C3)cc2F)N1CC(F)(F)F	3810
C#Cc1ccc2c3c([nH]c2c1)[C@@H](c1c(F)cc(N[C@H]2CCN(CCCF)C2)cc1F)N(CC(F)(F)F)[C@H](C)C3	10200

Could you now look at the following molecule, please?
Briefly, AUC(0-t) measured for C[C@@H]1Cc2c([nH]c3cc(F)ccc23)[C@@H](c2c(F)cc(N[C@H]3CCN(CCCF)C3)cc2F)N1CC(F)(F)F : 3360

* * *

Recorded DC50 by entry
Assay Target: UniProt P03372
Sequence (P03372 whole entry): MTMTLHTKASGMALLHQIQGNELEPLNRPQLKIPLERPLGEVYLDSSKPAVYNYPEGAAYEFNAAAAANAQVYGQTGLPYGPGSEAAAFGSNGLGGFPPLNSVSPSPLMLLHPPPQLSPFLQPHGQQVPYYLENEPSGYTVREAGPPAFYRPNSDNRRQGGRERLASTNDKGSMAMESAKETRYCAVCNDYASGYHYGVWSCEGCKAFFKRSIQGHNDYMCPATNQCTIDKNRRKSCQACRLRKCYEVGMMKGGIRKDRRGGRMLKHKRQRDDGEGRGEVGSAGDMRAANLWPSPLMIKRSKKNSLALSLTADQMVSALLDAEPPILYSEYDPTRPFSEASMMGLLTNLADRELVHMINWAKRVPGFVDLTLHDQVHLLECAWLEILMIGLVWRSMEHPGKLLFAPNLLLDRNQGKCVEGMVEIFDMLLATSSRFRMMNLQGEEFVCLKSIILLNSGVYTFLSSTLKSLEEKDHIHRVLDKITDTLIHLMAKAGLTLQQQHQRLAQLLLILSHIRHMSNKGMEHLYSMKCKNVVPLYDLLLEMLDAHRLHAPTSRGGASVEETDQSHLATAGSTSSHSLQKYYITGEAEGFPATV
Procedure Summary: Degradation effect of compounds on ERα in MCF-7 and CAMA-1 cells (automated western blot, 24 h)
Format: cell-based
Test Settings: ERα degradation in MCF-7 cells, 24 hours
Provide only the numeric value, understood in pM.

In the examples that follow, each entry is paired with its recorded DC50.
Molecule	Unit Tag	DC50
C[C@@H]1Cc2c([nH]c3cccc(F)c23)[C@@H](c2c(F)cc(N[C@H]3CCN(CCCF)C3)cc2F)N1CC(F)(F)CO	pM	447
CC1Cc2c([nH]c3cc4c(cc23)CC4)C(c2c(F)cc(NC3CN(CCCF)C3)cc2F)N1CC(F)(F)F (single isomer, unassigned)	pM	1130
C[C@@H]1Cc2c([nH]c3ccc(F)cc23)[C@@H](c2c(F)cc(N[C@H]3CCN(CCCF)C3)cc2F)N1CC(F)(F)F	pM	470
C[C@@H]1Cc2c([nH]c3cc(F)ccc23)[C@@H](c2c(F)cc(N[C@H]3CCN(CCCF)C3)cc2F)N1CC(F)(F)CO	pM	244
C[C@@H]1Cc2c([nH]c3ccc(F)cc23)[C@@H](c2c(F)cc(N[C@H]3CCN(CCCF)C3)cc2F)N1CC(F)(F)CF	pM	1700
C#Cc1ccc2c3c([nH]c2c1)[C@@H](c1c(F)cc(NC2CN(CCCF)C2)cc1F)N(CC(F)(F)F)[C@H](C)C3	pM	712

Kindly note the recorded DC50 for Cc1ccc2c3c([nH]c2c1)[C@@H](c1c(F)cc(N[C@H]2CCN(CCCF)C2)cc1F)N(CC(F)(F)CO)[C@H](C)C3 , which is 594

* * *

Assay Target: hERG potassium ion channel (Homo sapiens (Human))
Sequence (Q12809 whole entry): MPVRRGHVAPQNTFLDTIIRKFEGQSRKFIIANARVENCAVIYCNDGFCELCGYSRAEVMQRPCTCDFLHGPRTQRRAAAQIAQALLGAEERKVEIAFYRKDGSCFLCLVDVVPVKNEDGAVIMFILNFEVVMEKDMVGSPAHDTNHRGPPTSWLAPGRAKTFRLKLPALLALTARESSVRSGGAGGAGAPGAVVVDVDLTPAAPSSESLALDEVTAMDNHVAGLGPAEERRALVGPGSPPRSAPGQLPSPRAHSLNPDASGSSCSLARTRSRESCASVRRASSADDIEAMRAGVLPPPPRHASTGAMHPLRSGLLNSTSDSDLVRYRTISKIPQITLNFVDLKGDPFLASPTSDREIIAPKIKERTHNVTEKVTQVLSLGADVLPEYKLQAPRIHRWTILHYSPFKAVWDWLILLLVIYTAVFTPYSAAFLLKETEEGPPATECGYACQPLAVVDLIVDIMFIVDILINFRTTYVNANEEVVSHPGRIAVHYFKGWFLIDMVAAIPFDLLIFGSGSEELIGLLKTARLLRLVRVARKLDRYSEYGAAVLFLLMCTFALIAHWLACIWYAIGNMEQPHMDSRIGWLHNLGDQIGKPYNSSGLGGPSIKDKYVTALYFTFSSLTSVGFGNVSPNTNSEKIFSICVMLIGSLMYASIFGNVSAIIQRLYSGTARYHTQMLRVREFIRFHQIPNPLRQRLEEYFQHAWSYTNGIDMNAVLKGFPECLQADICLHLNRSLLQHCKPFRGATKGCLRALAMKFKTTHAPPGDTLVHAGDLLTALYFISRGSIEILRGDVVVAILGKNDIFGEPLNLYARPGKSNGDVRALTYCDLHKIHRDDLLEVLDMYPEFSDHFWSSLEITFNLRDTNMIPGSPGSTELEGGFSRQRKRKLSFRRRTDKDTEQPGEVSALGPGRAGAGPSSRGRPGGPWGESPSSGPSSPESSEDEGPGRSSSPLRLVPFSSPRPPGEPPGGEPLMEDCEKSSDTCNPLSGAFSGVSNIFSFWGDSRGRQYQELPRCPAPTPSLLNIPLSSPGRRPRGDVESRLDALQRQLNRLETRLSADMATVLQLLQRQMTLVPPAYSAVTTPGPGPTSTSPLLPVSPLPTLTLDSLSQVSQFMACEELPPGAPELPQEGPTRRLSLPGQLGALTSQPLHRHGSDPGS
Procedure Summary: Test for hERG potassium ion channel (manual patch-clamp, CHO cells)
Assay type: cell-based
Test Settings: human, CHO cells stably expressing hERG potassium channel; hERG potassium channel current, @40 μM; read-out: Inhibition rate at the highest concentration tested
Measured Endpoint: inhibition at 40 µM

// solved cases for inhibition at 40 µM follow
Smiles Repr	inhibition at 40 µM
C[C@@H]1Cc2c([nH]c3ccc(F)cc23)[C@@H](c2c(F)cc(N[C@H]3CCN(CCCF)C3)cc2F)N1CC(F)(F)F	100%
C#Cc1ccc2c3c([nH]c2c1)[C@@H](c1c(F)cc(N[C@H]2CCN(CCCF)C2)cc1F)N(CC(F)(F)F)[C@H](C)C3	98.3%

Let us examine a further case.
Record C[C@@H]1Cc2c([nH]c3cc(F)ccc23)[C@@H](c2c(F)cc(N[C@H]3CCN(CCCF)C3)cc2F)N1CC(F)(F)F , field inhibition at 40 µM: 100%
